experimental target: Sphingosine-1-phosphate transporter SPNS2 (Mus musculus) (UniProt Q91VM4)
Sequence (whole entry): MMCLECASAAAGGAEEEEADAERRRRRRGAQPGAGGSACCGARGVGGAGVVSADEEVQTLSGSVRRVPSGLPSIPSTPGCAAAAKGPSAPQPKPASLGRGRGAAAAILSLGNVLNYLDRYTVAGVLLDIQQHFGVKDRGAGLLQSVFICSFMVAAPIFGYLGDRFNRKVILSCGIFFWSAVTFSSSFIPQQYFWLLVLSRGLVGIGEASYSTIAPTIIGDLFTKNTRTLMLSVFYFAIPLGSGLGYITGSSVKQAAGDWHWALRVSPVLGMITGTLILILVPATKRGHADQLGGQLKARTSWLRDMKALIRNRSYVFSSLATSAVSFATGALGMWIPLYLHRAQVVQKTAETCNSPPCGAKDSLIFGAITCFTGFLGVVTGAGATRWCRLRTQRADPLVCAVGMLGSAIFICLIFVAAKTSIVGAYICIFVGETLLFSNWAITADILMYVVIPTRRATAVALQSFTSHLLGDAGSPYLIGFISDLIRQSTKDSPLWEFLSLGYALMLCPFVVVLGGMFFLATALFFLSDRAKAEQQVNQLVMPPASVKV
experiment description: Inhibition of mouse Spns2 expressed in Hela cells assessed as S1P release at 0.3 uM incubated for 18 to 20 hrs by LC-MS/MS analysis relative to control
Format: cell-based
details: time 18-20 hrs
endpoint: inhibition (%)

Below, each entry is followed by its recorded inhibition result.
INSERT INTO measurements (smiles_code, endpoint, numeric_value) VALUES
  ('CCCCCCCCCCCc1ccc2oc(NC[C@H]3CCNC3)nc2c1', 'inhibition', 52),
  ('CCCCCCCCCCc1ccc2oc(NC[C@H]3CCNC3)nc2c1', 'inhibition', 56),
  ('CCCCCCCCCCCCc1ccc2oc(NC[C@H]3CCNC3)nc2c1', 'inhibition', 36),
  ('CCCCCCCCCCc1ccc(-c2noc(CCCN)n2)cc1', 'inhibition', 30),
  ('CCCCCCCCCCc1ccc2[nH]c(NC[C@H]3CCNC3)nc2c1', 'inhibition', 34);

1: CCCCCCCCc1ccc2oc(NC[C@H]3CCNC3)nc2c1
2: CCCCCCCCCc1ccc2oc(NC[C@H]3CCNC3)nc2c1
Ask | Hey, between 1 and 2 which has a smaller measured inhibition? Answer by stating the label of the chosen item.
Reply | 1

====

experimental target: Sphingosine-1-phosphate transporter SPNS2 (Mus musculus)
experiment description: Inhibition of mouse Spns2 expressed in Hela cells assessed as S1P release at 1 uM incubated for 18 to 20 hrs by LC-MS/MS analysis relative to control
Type: cell-based
details: time 18-20 hrs
endpoint: inhibition (%)

Below, each entry is followed by its recorded inhibition result.
INSERT INTO assay_data (smiles_code, experimental_target, endpoint, units_label, numeric_value) VALUES
  ('CCCCCCCCCCc1ccc2oc(N3CC[C@@H](N)C3)nc2c1', 'Sphingosine-1-phosphate transporter SPNS2 (Mus musculus)', 'inhibition', '%', 4),
  ('CCCCCCCCCCc1ccc2oc(NCCCCN)nc2c1', 'Sphingosine-1-phosphate transporter SPNS2 (Mus musculus)', 'inhibition', '%', 32),
  ('CCCCCCCCCCc1ccc2oc(N[C@@H]3CCCNC3)nc2c1', 'Sphingosine-1-phosphate transporter SPNS2 (Mus musculus)', 'inhibition', '%', 63),
  ('CCCCCCCCCCc1ccc2oc(NC3CNC3)nc2c1', 'Sphingosine-1-phosphate transporter SPNS2 (Mus musculus)', 'inhibition', '%', 20);

1: CCCCCCCCCCc1ccc2oc(N[C@H]3CCCNC3)nc2c1
2: CCCCCCCCCCc1ccc2oc(NC[C@H]3CCNC3)nc2c1
3: CCCCCCCCCCc1ccc2oc(NC[C@@H]3CCCNC3)nc2c1
4: CCCCCCCCCCc1ccc2oc(N3CCNCC3)nc2c1
5: CCCCCCCCCCc1ccc2oc(N(C)CCN)nc2c1
Ask | Sort the 5 molecules by inhibition; largest first, smallest last. Thanks in advance for listing the labels in the requested order.
Reply | 2, 1, 3, 4, 5

====

experimental target: Sphingosine-1-phosphate transporter SPNS2 (Mus musculus) (UniProt Q91VM4)
Sequence (whole entry): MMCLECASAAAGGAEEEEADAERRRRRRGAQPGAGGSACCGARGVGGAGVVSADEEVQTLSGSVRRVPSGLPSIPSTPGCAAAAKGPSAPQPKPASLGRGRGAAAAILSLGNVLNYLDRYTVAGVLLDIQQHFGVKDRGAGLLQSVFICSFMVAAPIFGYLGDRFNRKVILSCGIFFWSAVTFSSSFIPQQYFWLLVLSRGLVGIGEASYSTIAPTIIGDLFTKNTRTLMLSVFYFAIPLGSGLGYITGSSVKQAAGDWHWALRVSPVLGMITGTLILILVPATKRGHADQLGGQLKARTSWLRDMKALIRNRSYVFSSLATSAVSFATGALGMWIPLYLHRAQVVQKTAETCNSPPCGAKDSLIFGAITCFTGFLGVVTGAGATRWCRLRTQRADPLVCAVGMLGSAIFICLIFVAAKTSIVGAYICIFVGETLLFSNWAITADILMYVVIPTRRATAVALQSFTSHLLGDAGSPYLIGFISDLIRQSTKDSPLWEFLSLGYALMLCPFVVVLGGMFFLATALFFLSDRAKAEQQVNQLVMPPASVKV
experiment description: Inhibition of mouse Spns2 expressed in Hela cells assessed as S1P release at 1 uM incubated for 18 to 20 hrs by LC-MS/MS analysis relative to control
Type: cell-based
details: time 18-20 hrs
endpoint: inhibition (%)

Below, each entry is followed by its recorded inhibition result.
INSERT INTO assay_data (smiles_code, units_label, numeric_value) VALUES
  ('CCCCCCCCCCc1ccc2oc(NC3CCNCC3)nc2c1', '%', 54),
  ('CCCCCCCCCCc1ccc2oc(CCN)nc2c1', '%', 5),
  ('CCCCCCCCCCc1ccc2oc(CCCCN)nc2c1', '%', 0);

I: CCCCCCCCCCc1ccc2oc(N3CC[C@H](N)C3)nc2c1
II: CCCCCCCCCCc1ccc2oc(CCCCCN)nc2c1
III: CCCCCCCCCCc1ccc2oc(NC[C@@H]3CCNC3)nc2c1
IV: CCCCCCCCCCc1ccc2oc(NC[C@H]3CCCNC3)nc2c1
V: CCCCCCCCCCc1ccc2oc(NC[C@H]3CCCN3)nc2c1
Ask | # rank by inhibition, ascending (min first) Thanks in advance for listing the labels in the requested order.
Reply | V, I, IV, II, III

a: CCCCCCCCCCc1ccc2oc(CCCN)nc2c1
b: CCCCCCCCCCc1ccc2oc(N(CCN)CCN)nc2c1
c: CCCCCCCCCCc1ccc2oc(N[C@H]3CCNC3)nc2c1
d: CCCCCCCCCCc1ccc2oc(NC[C@@H]3CCCN3)nc2c1
Ask | # rank by inhibition, ascending (min first) Thanks in advance for listing the labels in the requested order.
Reply | d, b, a, c
(d: 6%, b: 25%, a: 40%, c: 75%)

====

experimental target: Sphingosine-1-phosphate transporter SPNS2 (Mus musculus)
experiment description: Inhibition of mouse Spns2 expressed in Hela cells assessed as S1P release at 1 uM incubated for 18 to 20 hrs by LC-MS/MS analysis relative to control
Format: cell-based
details: time 18-20 hrs
endpoint: inhibition (%)

Below, each entry is followed by its recorded inhibition result.
INSERT INTO assay_data (smiles_code, endpoint, units_label, numeric_value) VALUES
  ('CCCCCCCCCCc1ccc2oc(NCCN)nc2c1', 'inhibition', '%', 16),
  ('CCCCCCCCCCc1ccc(-c2noc(CCCN)n2)cc1', 'inhibition', '%', 44),
  ('CCCCCCCCCCc1ccc2oc(NCCCCCN)nc2c1', 'inhibition', '%', 35);

I: CCCCCCCCCCc1ccc2oc(NCCCN)nc2c1
II: CCCCCCCCCCc1ccc2oc(N[C@@H]3CCNC3)nc2c1
Ask | Hey, between I and II which has a smaller measured inhibition? Answer by stating the label of the chosen item.
Reply | I
(I: 15%, II: 47%)
